Tested on: Chordin-like protein 2 (CHRDL2)
Procedure Summary: CHRDL2 small-molecule binders, primary screen, biochemical, small-molecule microarray, 635 nm fluorescence (AID 1126);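 also: printed compound slides probed with Chrdl2 protein at 4 µg/mL for 1 h at 4 C; score merges 667 nm emission intensity with signal to noise over three replicate slides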
Condition Summary: small-molecule microarray binding, fluorescence 635 nm; higher = more signal
Parameter: composite z-score. Scope: all listed entries.
The answer should be a number; do not append a unit.

COC(=O)[C@@]1(Cc2ccccc2)[C@H]2c3cc(C(=O)N4CCCC4)n(CCSCCO)c3C[C@H]2CN1C(=O)c1ccccc1    -0.997
CC(C)CNC(=O)[C@@H]1c2ccccc2C(=O)N(C2CCCCC2)[C@H]1c1ccc(CO)cc1    -0.718
CN(C)CCCNC(=O)[C@@H]1c2ccccc2C(=O)N(C2CCCCC2)[C@H]1c1ccc(CO)cc1    1.06
Cc1ccc(S[C@]2(C(=O)NCC(C)C)CC(=O)N(C3Cc4ccccc4C3)[C@@H]2c2ccc(CO)cc2I)cc1    -1.65

Q. Which value of composite z-score has been reported for [N-]=[N+]=NC[C@H](Cc1ccccc1)NC(=O)c1ccccc1 in the records?
A. 0.433

Q. Another molecule: CC(C)C(=C=CC[C@@H](O)c1cccc(OCCO)c1)C[C@@H](O)c1ccccn1
A. -0.377

Q. Another molecule: C=CC1c2cc(O)c(OC)cc2CCN1Cc1ccc([N+](=O)[O-])o1 (stereo not drawn)
A. -0.807

Q. Another molecule: COC(=O)C(CC#Cc1ccc2c(c1)[C@]1(C(=O)N2)[C@H](C(=O)Nc2nc3ccccc3s2)[C@H]2C(=O)O[C@H](c3ccccc3)[C@H](c3ccccc3)N2[C@@H]1c1ccc(OCCO)cc1)C(=O)OC
A. 0.517

====

Tested Target: Concanavalin-A (Canavalia ensiformis) (UniProt P02866)
Sequence (P02866 whole entry, looked up): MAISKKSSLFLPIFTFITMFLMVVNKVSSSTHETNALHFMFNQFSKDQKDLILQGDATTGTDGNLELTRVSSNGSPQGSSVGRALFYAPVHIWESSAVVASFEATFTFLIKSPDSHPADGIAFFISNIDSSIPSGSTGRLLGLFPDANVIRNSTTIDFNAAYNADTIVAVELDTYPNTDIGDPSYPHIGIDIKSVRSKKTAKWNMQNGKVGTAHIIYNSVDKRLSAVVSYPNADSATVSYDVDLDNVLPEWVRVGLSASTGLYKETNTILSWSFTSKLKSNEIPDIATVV
Procedure Summary: ConA small-molecule binders, primary screen, artefact control for SMM control protein annotation, biochemical, small-molecule microarray, Alexa647 label, 635 nm (AID 1127);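 also: z combines 667 nm emission intensity with signal-to-noise across three replicate slides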
Condition Summary: ConA-A647 binding fluorescence, higher = more signal
composite z-score vs 1: at or above is Fulfilled, below is Not fulfilled.

Example entries and their recorded answers appear below.
O=C1N(CCS(=O)(=O)c2ccccc2)Cc2ccccc2[C@@H]2OC(c3ccc(OCCCO)cc3)=N[C@]12CCS(=O)(=O)c1ccccc1    Fulfilled
CN1C(=O)[C@@]2(Cc3ccccc3)N=C(c3ccc(OCCCO)cc3)O[C@H]2c2ccccc21    Fulfilled
CN1C(=O)C2C=CC(C(O)c3cc(C(F)(F)F)cc(C(F)(F)F)c3)N(NC(=O)OC(C)(C)C)C2C1=O (stereo not drawn)    Fulfilled
COCCOC(=O)N1C(=O)[C@@]2(c3cc(C#CCC(C(=O)OC)C(=O)OC)ccc31)[C@H](C(=O)NC[C@H](O)c1ccccc1)[C@H]1C(=O)O[C@H](c3ccccc3)[C@H](c3ccccc3)N1[C@@H]2c1ccc(O)cc1    Not fulfilled
C=CCNC(=O)[C@@H]1[C@H]2C(=O)O[C@H](c3ccccc3)[C@H](c3ccccc3)N2[C@H](c2ccc(OCCO)cc2)[C@@]12C(=O)N(C(=O)OCCOC)c1ccc(C#CCCO)cc12    Fulfilled

Q. State whether the measured composite z-score reaches 1, counting equality as reaching it, for [N-]=[N+]=NCc1ccccc1[C@H]1OC(c2ccc(OCCCO)cc2)=N[C@@]1(Cc1ccccc1)C(=O)NCCN1CCOCC1
A. Fulfilled

Q. Another compound: C=C(/C(=C/C[C@H](OC(=O)c1ccncc1)c1ccccc1OCCO)c1cnc2ccccc2c1)C(C)C
A. Fulfilled

Q. Another compound: COCCOC(=O)N1C(=O)[C@@]2(c3cc(C#CC4=CCCCC4)ccc31)[C@H](c1ccc(O)cc1)N1[C@H](c3ccccc3)[C@H](c3ccccc3)OC(=O)[C@H]1[C@@H]2C(=O)NC[C@H](O)c1ccccc1
A. Not fulfilled

Q. Another compound: CCCCC=C[C@@H](NC(=O)c1ccccc1)c1ccccc1
A. Fulfilled

Q. Another compound: COCCOC(=O)N1C(=O)[C@@]2(c3cc(C#CCNC(N)=O)ccc31)[C@H](c1ccc(OCCO)cc1)N1[C@H](c3ccccc3)[C@H](c3ccccc3)OC(=O)[C@H]1[C@@H]2C(N)=O
A. Fulfilled

Q. Another compound: COC(=O)C(CC#Cc1ccc2c(c1)[C@]1(C(=O)N2)[C@H](C(=O)Nc2nc3ccccc3s2)[C@H]2C(=O)O[C@H](c3ccccc3)[C@H](c3ccccc3)N2[C@@H]1c1ccc(OCCO)cc1)C(=O)OC
A. Fulfilled

Q. Another compound: Cc1ccccc1C(O)C1C=CC2C(=O)N(c3ccccc3)C(=O)C2N1Nc1ccc([N+](=O)[O-])cc1 (stereo not drawn)
A. Fulfilled

====

Parameter: composite z-score. Scope: all listed entries.
Tested Target: Epidermal growth factor receptor (Homo sapiens) (UniProt P00533)
Sequence (P00533 whole entry, looked up): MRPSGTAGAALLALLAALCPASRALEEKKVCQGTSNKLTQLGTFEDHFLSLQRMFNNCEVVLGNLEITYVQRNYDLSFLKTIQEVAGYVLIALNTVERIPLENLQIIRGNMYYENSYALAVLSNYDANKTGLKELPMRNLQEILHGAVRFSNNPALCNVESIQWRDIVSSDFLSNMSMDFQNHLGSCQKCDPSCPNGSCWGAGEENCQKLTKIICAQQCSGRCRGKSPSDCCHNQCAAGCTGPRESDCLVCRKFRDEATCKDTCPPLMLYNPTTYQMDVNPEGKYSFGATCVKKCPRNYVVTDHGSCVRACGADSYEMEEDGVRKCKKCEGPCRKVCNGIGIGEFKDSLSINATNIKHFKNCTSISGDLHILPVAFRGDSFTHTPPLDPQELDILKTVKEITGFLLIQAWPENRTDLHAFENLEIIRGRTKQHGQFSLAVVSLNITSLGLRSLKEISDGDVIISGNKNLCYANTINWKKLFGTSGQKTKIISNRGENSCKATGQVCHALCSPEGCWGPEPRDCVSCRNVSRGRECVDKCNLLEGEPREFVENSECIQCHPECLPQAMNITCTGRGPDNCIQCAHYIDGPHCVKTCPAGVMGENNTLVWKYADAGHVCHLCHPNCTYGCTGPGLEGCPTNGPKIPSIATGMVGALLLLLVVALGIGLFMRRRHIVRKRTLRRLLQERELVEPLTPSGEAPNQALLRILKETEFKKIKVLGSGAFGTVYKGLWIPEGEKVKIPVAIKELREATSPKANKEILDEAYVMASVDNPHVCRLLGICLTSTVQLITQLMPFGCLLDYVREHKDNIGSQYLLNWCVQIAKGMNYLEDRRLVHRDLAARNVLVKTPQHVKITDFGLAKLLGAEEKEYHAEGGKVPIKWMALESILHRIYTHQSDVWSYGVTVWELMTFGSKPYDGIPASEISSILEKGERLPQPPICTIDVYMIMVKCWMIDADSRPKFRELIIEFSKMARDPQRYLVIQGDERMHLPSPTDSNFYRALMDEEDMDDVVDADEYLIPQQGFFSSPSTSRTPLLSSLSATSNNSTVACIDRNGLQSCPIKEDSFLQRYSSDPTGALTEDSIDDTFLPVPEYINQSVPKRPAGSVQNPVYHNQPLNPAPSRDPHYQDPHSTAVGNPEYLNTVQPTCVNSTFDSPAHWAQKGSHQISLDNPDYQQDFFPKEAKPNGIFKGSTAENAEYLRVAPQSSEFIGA
Procedure Summary: EGFR binders on small-molecule microarrays, primary screen, biochemical, small-molecule microarray, 635 nm fluorescence (AID 1104);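 also: score merges 667 nm emission intensity with spot signal to noise over triplicate slides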
Condition Summary: EGFR binding, higher = more signal
The answer should be a number; do not append a unit.

CCOC(=O)C[C@H]1[C@H](OC(=O)c2ccc(-c3ccccc3)cc2)[C@@H](NC(=O)CC(C)C)c2cc(OCCCO)ccc2N1C(=O)c1ccccc1    -0.101

Q. Recall the recorded composite z-score for O=C1C2C=CC(C(O)c3cccc(O)c3)N(Nc3ccccc3)C2C(=O)N1c1ccccc1 (centres undefined) with Epidermal growth factor receptor (Homo sapiens) (UniProt P00533) and state it.
A. 0.112

Q. Another molecule: Cc1cccc([C@H]2C[C@H]3C(Br)=C[C@@H]2C(=O)[C@]32CO2)c1
A. -0.0431

Q. Another molecule: COc1ccc(C(O)C2C=CC3C(=O)N(c4ccccc4)C(=O)C3N2Nc2ccccc2)cc1 (centres undefined)
A. 0.199

Q. Another molecule: COC(=O)C1N=C(c2ccc(OCCCO)cc2)N(c2ccccc2)O1 (centres undefined)
A. 0.172

Q. Another molecule: CC(C)CCC[C@@H](C)[C@H]1CC[C@@]2(C)C3=C(CC[C@]12C)[C@@]1(C)CC[C@H](OC(=O)c2ccccc2)C(C)(C)C1CC3 (some centres undefined)
A. 0.375

Q. Another molecule: CC(C)CNC(=O)[C@@]1(C)c2ccccc2C(=O)N(Cc2cc(C(F)(F)F)cc(C(F)(F)F)c2)[C@H]1c1ccc(CO)cc1
A. -0.647

====

Tested Target: Torsin-1A-interacting protein 2 (Homo sapiens) (UniProt Q8NFQ8)
Sequence (Q8NFQ8 whole entry, looked up): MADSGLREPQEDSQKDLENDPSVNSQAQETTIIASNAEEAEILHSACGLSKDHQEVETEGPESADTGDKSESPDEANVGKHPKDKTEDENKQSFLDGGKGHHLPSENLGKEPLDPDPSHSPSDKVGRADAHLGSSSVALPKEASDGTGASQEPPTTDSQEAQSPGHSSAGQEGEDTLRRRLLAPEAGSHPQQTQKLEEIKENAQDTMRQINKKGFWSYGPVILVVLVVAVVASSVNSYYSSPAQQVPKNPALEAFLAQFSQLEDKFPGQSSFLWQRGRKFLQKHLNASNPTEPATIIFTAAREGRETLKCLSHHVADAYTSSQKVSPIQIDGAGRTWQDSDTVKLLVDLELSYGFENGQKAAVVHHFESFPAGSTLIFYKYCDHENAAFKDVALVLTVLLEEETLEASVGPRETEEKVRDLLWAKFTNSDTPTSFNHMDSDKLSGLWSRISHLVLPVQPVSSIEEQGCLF
Procedure Summary: LULL1 binders on small-molecule microarray, primary screen, cell lysate, human LULL1 lysate, 635/667 nm fluorescence (AID 1092);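 also: probe is lysate of COS7 cells overexpressing human LULL1; score merges per-feature 667 nm fluorescence with signal-to-noise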
Condition Summary: hLULL1 lysate binding, 635 nm fluorescence, higher = more signal
Quantity Kind: composite z-score

# example entries with known answers
[N-]=[N+]=Nc1ccccc1C[C@@]1(C(=O)O)N=C(c2ccc(OCCCO)cc2)O[C@@H]1c1ccccc1N=[N+]=[N-]    3.04
CC(C)[C@H]1NC(=O)[C@@]23C(=O)N[C@@H](Cc4ccccc4)C2[C@H](C)[C@@]2(C)O[C@H]2C3/C=C/CCC/C=C/CNC(=O)[C@H](Cc2ccccc2)NC1=O (stereo partly drawn)    2.47
COCC(=C=CC[C@@H](O)c1cccc(OCCO)c1)CCO    0.939
CCOC(=O)C=Cc1ccccc1O    1.44
COCCOC(=O)N1C(=O)[C@@]2(c3cc(C#CCNC(N)=O)ccc31)[C@H](c1ccc(O)cc1)N1[C@H](c3ccccc3)[C@H](c3ccccc3)OC(=O)[C@H]1[C@@H]2C(=O)N1CCN(c2ncccn2)CC1    3

Q. Which value of composite z-score has been reported for O=C(NCCN1CCOCC1)[C@@H]1c2ccccc2C(=O)N(Cc2ccccc2)[C@H]1c1ccc(CO)cc1 in the records?
A. 0.0893

Q. Another compound: CCCCC(=O)N(CCN1CCOCC1)[C@@H]1CC(C(=O)NCCO)=C[C@H](Oc2c(I)cc(CO)cc2OC)[C@H]1O
A. 0.322

Q. Another compound: C=C(/C(=C/C[C@H](OC(=O)c1ccncc1)c1ccccc1OCCO)c1cnc2ccccc2c1)C(C)C
A. 2.27

====

Procedure Summary: binders of probe aFSTL3 on microarray, primary screen, stem cell growth factor project, biochemical, small-molecule microarray, fluorescence 635/667 (AID 1064);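 also: measures binding of the biotinylated anti-FSTL3 antibody to printed compounds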
Condition Summary: higher = more signal
So basically, the class depends on measured composite z-score, and the ranges are band 1: < -0.02; band 2: ≥ -0.02 and < 0.7; band 3: ≥ 0.7

Q. Band for C=C[C@H](C)[C@H](OC(=O)Nc1ccc(OC)cc1)c1ccc(OCCO)cc1 ?
A. band 2

Q. Another compound: CN1C(=O)C2C=CC(C(O)c3ccc(I)cc3)N(Nc3ccccc3)C2C1=O (stereo not given)
A. band 2

Q. Another compound: COCCOC(=O)N1C(=O)[C@@]2(c3cc(C#CCNC(N)=O)ccc31)[C@H](c1ccc(O)cc1)N1[C@H](c3ccccc3)[C@H](c3ccccc3)OC(=O)[C@H]1[C@@H]2C(N)=O
A. band 2

Q. Another compound: CCCNC(=O)[C@@]1(Sc2ccc(C)cc2)CC(=O)N(C(C)C)[C@@H]1c1ccc(CO)cc1I
A. band 3
